Numbers sourced from the supplement of paper PMC13094657.

System: MDA-MB-231
Method notes: cell viability relative to vehicle unstimulated control (fraction); higher = more viable cells
Experimental setup: pre-treatment time: 18 h then 24 h IFNg/TNF
Observable: cell viability
Quick one: just the number, no unit, thanks!

| Compound | Test result |
| --- | --- |
| C=C1C=CC(C(C)C)CC1 (stereo not drawn) [β-Phellandrene] (compound dose: 10 uM) | 0.99 |
| C[C@]1(OC(=O)/C=C/c2ccccc2)C[C@@H](O)[C@]2(O)C=CO[C@@H](O[C@@H]3O[C@H](CO)[C@@H](O)[C@H](O)[C@H]3O)[C@@H]21 [Harpagoside] (compound dose: 10 uM) | 0.987 |
| CC(=O)O[C@]12CCC(C(=O)O)=CC[C@]13CC[C@H]2[C@@](C)(/C=C/C=C(\C)C(=O)O)OC3=O [Pseudolaric Acid C2] (compound dose: 10 uM) | 1.02 |
| CCCCCCCCCC(=O)O[C@@H]1[C@@H](C)[C@@]2(O)[C@@H](C=C(COC(=O)Cc3ccc(O)c(OC)c3)C[C@]3(O)C(=O)C(C)=C[C@@H]23)[C@@H]2C(C)(C)[C@]12OC(=O)CCCCCCCCC [Phorbol 12,13-didecanoate 20-homovanillate] (compound dose: 10 uM) | 1 |
| CC(=O)OC/C=C(\C)CCC=C(C)C [Geranyl acetate] (compound dose: 10 uM) | 1.01 |
| C=C(C=O)[C@H]1CC[C@H](C)[C@H]1C=O [dolichodial] (compound dose: 10 uM) | 1 |

Exercise: Data request, read-out cell viability, for C[C@@H]1CC[C@H]2C(C)(C)[C@H]3C[C@@]12CC[C@@]3(C)O [Cedrol] (compound dose: 10 uM)
Key: 0.977

Exercise: Data request, read-out cell viability, for C=C1CCC[C@]2(C)C[C@]3(O)OC(=O)C(C)=C3C[C@@H]12 [Atractylenolide III] (compound dose: 10 uM)
Key: 1.01

---

Test system: MDA-MB-231
Method notes: kynurenine production, fold change vs DMSO IFNg/TNF control; higher = more kynurenine produced (less inhibition)
Experimental setup: pre-treatment time: 18 h then 24 h IFNg/TNF
kynurenine production listing for selected compounds.
Quick one: just the number, no unit, thanks!

Example entries and their recorded answers appear below.
| Compound | Measured on | kynurenine production |
| --- | --- | --- |
| O=c1ccn2c(n1)O[C@H]1[C@H](O)[C@@H](CO)O[C@H]12 [2,2'-Anhydrouridine] (compound dose: 10 uM) | MDA-MB-231 | 0.923 |
| O[C@@H]1[C@@H](O)[C@@H](OC/C=C/c2ccccc2)O[C@H](CO[C@@H]2OC[C@H](O)[C@H](O)[C@H]2O)[C@H]1O [Rosavin] (compound dose: 10 uM) | MDA-MB-231 | 0.882 |

Could you now look at the following compound, please?
Exercise: Data request, read-out kynurenine production, for C[C@H]1[C@H](C)CC[C@]2(C(=O)O)CC[C@]3(C)C(=CC[C@@H]4[C@@]5(C)CC[C@H](O)C(C)(C)[C@@H]5CC[C@]43C)[C@H]12 [Ursolic acid] (compound dose: 10 uM)
Key: 0.891

---

Tested on: MDA-MB-231
Method notes: kynurenine production, fold change vs DMSO IFNg/TNF control; higher = more kynurenine produced (less inhibition)
Experimental setup: pre-treatment time: 18 h then 24 h IFNg/TNF
Values of kynurenine production greater than or equal to 0.8 map to T; values below map to F.

Field: example entries. Status: answers known.
| Compound | Measured on | Label class |
| --- | --- | --- |
| C[C@@]12C[C@@]3(O)O[C@@H](O1)[C@]1(COC(=O)c4ccc(O)cc4)[C@@H]3C[C@]12O[C@@H]1O[C@H](CO)[C@@H](O)[C@H](O)[C@H]1O [Oxypaeoniflorin] (compound dose: 10 uM) | MDA-MB-231 | T |
| C=C1CC[C@H]2C(=C)CC[C@H]3C(=C)C(=O)O[C@@H]3[C@@H]12 [Dehydrocostus Lactone] (compound dose: 10 uM) | MDA-MB-231 | F |
| C=C(C)[C@@H]1CC=C(CO)CC1 [Perillyl alcohol] (compound dose: 10 uM) | MDA-MB-231 | T |
| CC(C)=CCC[C@@](C)(O)[C@H]1CC[C@]2(C)[C@@H]1[C@H](O)C[C@@H]1[C@@]3(C)CC[C@H](O[C@@H]4O[C@H](CO)[C@@H](O)[C@H](O)[C@H]4O[C@@H]4O[C@H](CO)[C@@H](O)[C@H](O)[C@H]4O[C@@H]4OC[C@@H](O)[C@H](O)[C@H]4O)C(C)(C)[C@@H]3CC[C@]12C [Notoginsenoside Ft1] (compound dose: 2 uM) | MDA-MB-231 | T |
| C[C@H]1COC2=C1C(=O)C(=O)c1c2ccc2c1CCCC2(C)C [Cryptotanshinone] (compound dose: 10 uM) | MDA-MB-231 | F |
| C=C1CCC[C@]2(C)C[C@]3(O)OC(=O)C(C)=C3C[C@@H]12 [Atractylenolide III] (compound dose: 10 uM) | MDA-MB-231 | F |

Exercise: Hi team, for C=C1[C@H](OC(=O)C(C)C)[C@@H](O)[C@@H](OC(C)=O)C(C)(C)/C=C/[C@H](C)[C@H](OC(C)=O)[C@@]2(O)C[C@@](C)(OC(C)=O)[C@H](OC(=O)c3ccccc3)[C@@H]2[C@H]1OC(C)=O [Jatrophane 4] (compound dose: 10 uM) , is the recorded kynurenine production at or above 0.8?
Key: F

Exercise: Hi team, for C[C@@H]1C(=O)O[C@H]2C[C@@]34[C@H]5C[C@@H](C(C)(C)C)[C@]36[C@@H](OC(=O)[C@@H]6O)O[C@@]4(C(=O)O5)[C@]21O [Ginkgolide A] (compound dose: 10 uM) , is the recorded kynurenine production at or above 0.8?
Key: T

Exercise: Hi team, for CC(CCC(OC1OC(COC2OC(CO)C(O)C(O)C2O)C(O)C(O)C1OC1OC(CO)C(O)C(O)C1O)C(C)(C)O)C1CCC2(C)C3CC=C4C(CCC(OC5OC(COC6OC(CO)C(O)C(O)C6O)C(O)C(O)C5O)C4(C)C)C3(C)C(=O)CC12C (stereo not drawn) [11-oxo-mogroside V] (compound dose: 10 uM) , is the recorded kynurenine production at or above 0.8?
Key: T

Exercise: Hi team, for C[C@@H]1O[C@@H](O[C@H]2[C@H](O[C@H]3[C@H](O[C@H]4CC[C@]5(C)[C@H]6CC=C7[C@@H]8CC(C)(C)CC[C@]8(C(=O)O)CC[C@@]7(C)[C@]6(C)CC[C@H]5C4(C)C)OC[C@H](O)[C@@H]3O)O[C@H](CO)[C@@H](O)[C@@H]2O)[C@H](O)[C@H](O)[C@H]1O [Raddeanin A] (compound dose: 10 uM) , is the recorded kynurenine production at or above 0.8?
Key: F

Exercise: Hi team, for CC1=CCC(C(C)C)=CC1 [γ-Terpinene] (compound dose: 10 uM) , is the recorded kynurenine production at or above 0.8?
Key: F
